Tested on: Spodoptera frugiperda
Assay: Spodoptera frugiperda spray test
Type: in vivo
Details: in Zea mays, 168 h, read-out: activity (mortality)

{"molecule": "Cc1nc([C@H](C)NC(=O)c2cc(C(F)(F)F)cc(C(F)(F)F)c2)n(-c2ccc(C(=O)N(C)CC3CC3)cn2)n1", "mortality at 100 g/ha / %": 100}
{"molecule": "CC(C)N(C(=O)c1ccc(-n2ncnc2[C@H](C)NC(=O)c2cc(Cl)cc(C(F)(F)F)c2)nc1)C1CC1", "mortality at 100 g/ha / %": 83}
{"molecule": "CC(C)c1nc([C@H](C)NC(=O)c2cc(Br)cc(C(F)(F)F)c2)n(-c2ccc(C#N)cn2)n1", "mortality at 100 g/ha / %": 100}
{"molecule": "CC(=O)Nc1ccnc(-n2ncnc2[C@H](C)NC(=O)c2cc(Cl)cc(C(F)(F)F)c2)c1", "mortality at 100 g/ha / %": 100}
{"molecule": "C[C@H](NC(=O)c1cc(Br)cc(OC(F)(F)F)c1)c1nc(C2CC2)nn1-c1ccc(C#N)cn1", "mortality at 100 g/ha / %": 100}
{"molecule": "Cc1nc([C@H](C)NC(=O)c2cc(Br)cc(C#N)c2)n(-c2ccc(C#N)cn2)n1", "mortality at 100 g/ha / %": 100}
{"molecule": "Cc1nc([C@H](C)NC(=O)c2cc(Cl)cc(C(F)(F)C(F)(F)F)c2)n(-c2ccc(C#N)cn2)n1", "mortality at 100 g/ha / %": 100}
{"molecule": "C[C@H](NC(=O)c1cc(Cl)cc(OC(F)(F)F)c1)c1ncnn1-c1cc(NC(=O)C2CC2)ccn1", "mortality at 100 g/ha / %": 100}
{"molecule": "CCN(C)C(=O)c1ccc(-n2nc(C)nc2[C@H](C)NC(=O)c2cc(C(F)(F)F)cc(C(F)(F)F)c2)nc1", "mortality at 100 g/ha / %": 100}
{"molecule": "CCc1nc([C@H](C)NC(=O)c2cc(C(F)(F)F)cc(C(F)(F)F)c2)n(-c2ccc(C#N)cn2)n1", "mortality at 100 g/ha / %": 100}
{"molecule": "C[C@H](NC(=O)c1cc(Cl)cc(OC(F)(F)F)c1)c1ncnn1-c1cc(C#N)ccn1", "mortality at 100 g/ha / %": 100}
{"molecule": "C[C@H](NC(=O)c1cc(Br)cc(Br)c1)c1nc(C2CC2)nn1-c1ccc(C#N)cn1", "mortality at 100 g/ha / %": 100}
{"molecule": "CC(C)c1nc([C@H](C)NC(=O)c2cncc(C(F)(F)F)c2)n(-c2ccc(C#N)cn2)n1", "mortality at 100 g/ha / %": 100}
{"molecule": "CCN(CC)C(=O)c1ccnc(-n2ncnc2[C@H](C)NC(=O)c2cc(C(F)(F)F)cc(C(F)(F)F)c2)c1", "mortality at 100 g/ha / %": 83}
{"molecule": "CC(NC(=O)c1cc(Br)cc(Br)c1)c1nc(Br)nn1-c1ccc(C#N)cn1 (stereo not drawn)", "mortality at 100 g/ha / %": 100}
{"molecule": "CC(NC(=O)c1cc(C(F)(F)F)cc(C(F)(F)F)c1)c1nc(Br)nn1-c1ccc(C#N)cn1 (racemic)", "mortality at 100 g/ha / %": 100}
{"molecule": "COCCN(C)C(=O)c1ccc(-n2nc(C)nc2[C@H](C)NC(=O)c2cc(C(F)(F)F)cc(C(F)(F)F)c2)nc1", "mortality at 100 g/ha / %": 83}
{"molecule": "CC(NC(=O)c1cncc(C(F)(F)F)c1)c1nc(Cl)nn1-c1ccc(C#N)cn1 (stereo not drawn)", "mortality at 100 g/ha / %": 100}
